experiment: in vitro; details: human, hela cells, % viability
measured parameter: viability at 28.5 h, 10 µM (%)
Kindly answer with a numeric value in %, unit omitted.

CCN1CCN(c2ccc(NC(=O)c3cccc(OCc4ccccc4)c3)cc2)CC1
95
CCCc1n[nH]c(C2CC2)c1C(=O)OCC
115
CCN(CC)CCNc1cc(C)nc2c1C(=O)C(=O)C=C2N1CCCCC1
89.5

I'd like to know its viability at 28.5 h, 10 µM. The compound in question is CC(C)NC(=O)c1cccc2c1CCCN2Cc1nc2ccccc2o1
101

I'd like to know its viability at 28.5 h, 10 µM. The compound in question is CCCNc1nc(Nc2ccc(C)cc2)nc(N2CCOCC2)n1
111

I'd like to know its viability at 28.5 h, 10 µM. The compound in question is COc1cnc(-c2ccc(Cl)cc2Cl)c(NC(=O)Cc2ccccc2)n1
92.8

I'd like to know its viability at 28.5 h, 10 µM. The compound in question is O=S(=O)(c1c(Cl)cccc1Cl)n1ccc2c(N3CCNCC3)nccc21 [CBK059060C]
91.4

---

experiment: in vitro; details: human, hela cells, % viability
# viability at 28.5 h, 10 µM per record follows
Kindly answer with a numeric value in %, unit omitted.

I'd like to know its viability at 28.5 h, 10 µM. The compound in question is OCc1ccccc1-c1cncc(N2CCCC2CO)n1 (centres unmarked)
106

I'd like to know its viability at 28.5 h, 10 µM. The compound in question is CC(C)(C)c1ccc(S(=O)(=O)N2CCCC[C@H]2COC(=O)COCC(=O)O)cc1
96.6

I'd like to know its viability at 28.5 h, 10 µM. The compound in question is Cc1nn(Cc2nnn(CC(=O)O)n2)c(C)c1Br
101

I'd like to know its viability at 28.5 h, 10 µM. The compound in question is CC(=O)Nc1ccc(S(=O)(=O)NCCC#N)cc1Cl
95.2

I'd like to know its viability at 28.5 h, 10 µM. The compound in question is CSCCCNC(=O)N1CCCC(CO)C1 (centres unmarked)
106

I'd like to know its viability at 28.5 h, 10 µM. The compound in question is O=c1cccc2n1CC1CC2CN(Cc2cccc(OCc3ccccc3)c2)C1 (centres unmarked)
102

I'd like to know its viability at 28.5 h, 10 µM. The compound in question is Cc1nn(C)c(S(=O)(=O)N2CCOCC2c2cccc(F)c2)c1C(F)F (centres unmarked)
86.3

I'd like to know its viability at 28.5 h, 10 µM. The compound in question is COc1ccc2c(c1)cc(C(=O)NCc1cncn1CC(C)C)n2C
89.3

I'd like to know its viability at 28.5 h, 10 µM. The compound in question is O=C(Nc1ccc2[nH]ncc2c1)c1ccccc1Cl
87.8

I'd like to know its viability at 28.5 h, 10 µM. The compound in question is Cc1cccc(Nc2nc(C)cc3n[nH]c(=O)n23)c1
89.2

I'd like to know its viability at 28.5 h, 10 µM. The compound in question is C=CCN1CCCC[C@H]2CN(S(=O)(=O)c3cccc(F)c3)C[C@H]21
103

I'd like to know its viability at 28.5 h, 10 µM. The compound in question is O=C(O)CCNc1ccc(Cl)cc1
75.5

I'd like to know its viability at 28.5 h, 10 µM. The compound in question is O=C(O)c1ccc(NC(=O)c2ccccc2NC(=O)c2cccc(Br)c2)cc1
102

I'd like to know its viability at 28.5 h, 10 µM. The compound in question is CCNS(=O)(=O)c1ccc2c(c1)N(Cc1ccc(CO)o1)CC2
83.8

I'd like to know its viability at 28.5 h, 10 µM. The compound in question is CC(C)(CO)CNc1cncc(-c2cccc(Cl)c2)n1
102

I'd like to know its viability at 28.5 h, 10 µM. The compound in question is Cc1ccc(CN(C2CCN(C)CC2)S(=O)(=O)c2ccc(F)cc2F)cc1 [CBK160448T]
97.5

I'd like to know its viability at 28.5 h, 10 µM. The compound in question is CCc1nc2ccc(C(=O)N3CCCCC3)cn2c1N(C)CCC(C)C
96.3

I'd like to know its viability at 28.5 h, 10 µM. The compound in question is Cc1noc(C)c1CN1CCC(Cc2ccccc2)CC1
96.8

I'd like to know its viability at 28.5 h, 10 µM. The compound in question is COc1ccc(S(=O)(=O)N(CC(=O)N2CCC(C(N)=O)CC2)c2ccccc2)cc1
108

I'd like to know its viability at 28.5 h, 10 µM. The compound in question is Cc1ccc2c(c1)nc(CNC(=O)NCc1ccnc(C)n1)n2C
101
